Every entry's value here was drawn from patent US10144746B2.

assayed.system: Human plasma kallikrein (Homo sapiens (Human))
test.details: In vitro plasma kallikrein inhibition assay (chromogenic substrate D-Pro-Phe-Arg-pNa, absorbance at 405 nm, IC50 determination)
Type: biochemical
condition.details: read-out: KLKB1 pIC50 (converted)
quantity.measured: IC50
Include the unit after the number when you answer.

Field: example entries. Status: answers known.
molecule	assayed.system	IC50
Nc1noc2cc(CNC(=O)c3ccc4c(c3)[C@@H]3O[C@H]4c4ccc(-c5ccc(F)cc5F)cc43)ccc12 (single isomer, unassigned)	Human plasma kallikrein (Homo sapiens (Human))	1000 nM
C=C(C)c1cc(N)nc(C)c1CNC(=O)c1ccc2c(c1)[C@@H]1O[C@H]2c2ccc(-c3ccc(F)cc3F)cc21 (single isomer, unassigned)	Human plasma kallikrein (Homo sapiens (Human))	12 nM

**Q:** Respond only with IC50 recorded for Nc1ncc(CNC(=O)c2ccc3c(c2)C2OC3c3ccc(-c4ccc(F)cc4F)cc32)c2ccccc12 (racemic)
**A:** 4070 nM

**Q:** Respond only with IC50 recorded for NC(=O)c1cccc(CNC(=O)c2ccc3c(c2)[C@@H]2O[C@H]3c3ccc(-c4ccc(F)cc4F)cc32)c1 (single isomer, unassigned)
**A:** 100000 nM

**Q:** Respond only with IC50 recorded for Cc1cc(N)nc(C)c1CNC(=O)c1ccc2c(c1)C1OC2c2cc3c(cc21)OCCO3 (racemic)
**A:** 550 nM

**Q:** Respond only with IC50 recorded for COc1cc(N)nc(C)c1CNC(=O)c1ccc2c(c1)C1OC2c2ccc(Cn3cccn3)cc21 (racemic)
**A:** 3.98 nM

----------
assayed.system: Human plasma kallikrein (Homo sapiens (Human), UniProt P03952)
Sequence (P03952 391-638): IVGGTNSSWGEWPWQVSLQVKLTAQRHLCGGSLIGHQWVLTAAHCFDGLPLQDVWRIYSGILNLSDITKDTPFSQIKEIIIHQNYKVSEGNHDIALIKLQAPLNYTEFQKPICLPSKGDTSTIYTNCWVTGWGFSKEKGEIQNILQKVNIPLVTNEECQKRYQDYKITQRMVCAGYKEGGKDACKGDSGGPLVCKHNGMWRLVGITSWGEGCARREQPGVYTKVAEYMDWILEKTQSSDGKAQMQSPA
Sequence (P03952 20-390 partner): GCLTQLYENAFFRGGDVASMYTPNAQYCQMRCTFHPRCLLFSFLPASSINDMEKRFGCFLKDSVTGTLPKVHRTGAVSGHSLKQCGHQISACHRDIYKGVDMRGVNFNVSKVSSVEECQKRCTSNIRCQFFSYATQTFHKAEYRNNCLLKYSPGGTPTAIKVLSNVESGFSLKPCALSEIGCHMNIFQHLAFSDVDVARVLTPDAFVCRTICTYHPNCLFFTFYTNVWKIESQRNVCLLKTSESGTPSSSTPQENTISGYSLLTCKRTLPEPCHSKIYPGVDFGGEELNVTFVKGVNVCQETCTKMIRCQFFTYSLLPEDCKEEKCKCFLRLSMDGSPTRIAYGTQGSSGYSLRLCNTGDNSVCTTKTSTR
test.details: In vitro plasma kallikrein inhibition assay (chromogenic substrate D-Pro-Phe-Arg-pNa, absorbance at 405 nm, IC50 determination)
Type: biochemical
condition.details: read-out: KLKB1 pIC50 (converted)
Below: a set of entries, each annotated with reported IC50.

molecule	result
CCOC(=O)N=C(N)c1cc(F)c(CNC(=O)c2ccc3c(c2)[C@@H]2O[C@H]3c3ccc(-c4ccc(F)cc4F)cc32)c(F)c1 (single isomer, unassigned)	1230 nM
Cc1cc(C(=N)N)cc(C)c1CNC(=O)c1ccc2c(c1)[C@@H]1O[C@H]2c2ccc(C3CC3)cc21 (single isomer, unassigned)	1 nM

Okay, next one:
**Q:** Respond only with IC50 recorded for Cc1cc(N)nc(C)c1CNC(=O)c1ccc2c(c1)[C@@H]1O[C@H]2c2ccc(C(=O)c3cccc(F)c3)cc21 (single isomer, unassigned)
**A:** 12 nM

----------
assayed.system: Human plasma kallikrein (Homo sapiens (Human), UniProt P03952)
test.details: In vitro plasma kallikrein inhibition assay (chromogenic substrate D-Pro-Phe-Arg-pNa, absorbance at 405 nm, IC50 determination)
Format: biochemical
condition.details: read-out: KLKB1 pIC50 (converted)
quantity.measured: IC50 (nM)
Please give a number only; it is taken to be in nM.

Field: example entries. Status: answers known.
molecule	IC50 (nM)
CC(F)(F)c1ccc2c(c1)[C@H]1O[C@@H]2c2ccc(C(=O)NCc3ccc(C(=N)N)cc3)cc21 (single isomer, unassigned)	10
N=C(N)c1ccc(NC(=O)c2ccc3c(c2)[C@@H]2O[C@H]3c3ccc(-c4ccc(F)cc4F)cc32)cc1 (single isomer, unassigned)	10700
CCN(C(=O)c1ccccc1)c1ccc2c(c1)[C@H]1O[C@@H]2c2ccc(C(=O)NCc3c(C)cc(N)nc3C)cc21 (single isomer, unassigned)	10000
N=C(N)c1ccc(CNC(=O)c2ccc3c(c2)C2OC3c3cc(C4CC4)c(C4CC4)cc32)cc1 (racemic)	4.9
Cc1nc(N)cc(C2CCOCC2)c1CNC(=O)c1ccc2c(c1)[C@@H]1O[C@H]2c2ccc(-c3ccc(F)cc3F)cc21 (single isomer, unassigned)	5.01

**Q:** Respond only with IC50 recorded for Cc1nc(N)cc(C(F)(F)F)c1CNC(=O)c1ccc2c(c1)[C@@H]1O[C@H]2c2ccc(-c3ccc(F)cc3F)cc21 (single isomer, unassigned)
**A:** 10700

**Q:** Respond only with IC50 recorded for COc1ccc(-c2ccc3c(c2)[C@H]2O[C@@H]3c3ccc(C(=O)NCc4c(C)cc(N)nc4C)cc32)c(F)n1 (single isomer, unassigned)
**A:** 117

**Q:** Respond only with IC50 recorded for N=C(N)c1ccc(CNC(=O)c2ccc3c(c2)[C@@H]2O[C@H]3c3ccc(N4CCS(=O)(=O)CC4)cc32)cc1 (single isomer, unassigned)
**A:** 26.9

**Q:** Respond only with IC50 recorded for N=C(N)c1ccc(CNC(=O)c2ccc3c(c2)[C@@H]2O[C@H]3c3ccc(-c4ccc(F)cc4F)cc32)nc1 (single isomer, unassigned)
**A:** 63.1

**Q:** Respond only with IC50 recorded for Cc1cc(N)nc(C)c1CNC(=O)c1ccc2c(c1)C1OC2c2cc3c(O)nnc(O)c3cc21 (racemic)
**A:** 10200

**Q:** Respond only with IC50 recorded for COc1cc2c(cc1OC)C1OC2c2ccc(C(=O)NCc3c(C)cc(N)nc3C)cc21 (racemic)
**A:** 1620

**Q:** Respond only with IC50 recorded for Cc1ccc(C(=O)c2ccc3c(c2)[C@H]2O[C@@H]3c3ccc(C(=O)NCc4c(C)cc(N)nc4C)cc32)o1 (single isomer, unassigned)
**A:** 22.9
